TARGET SYSTEM: T1, Cynomolgus PSGL-1(ECD)-hFc1 (cynomolgus macaque)
T1 construct: also called Cyno PSGL1-Fc; Cyno PSGL-1(ECD)-Fc
T1 sequence (chain, as listed by the source limits assumed): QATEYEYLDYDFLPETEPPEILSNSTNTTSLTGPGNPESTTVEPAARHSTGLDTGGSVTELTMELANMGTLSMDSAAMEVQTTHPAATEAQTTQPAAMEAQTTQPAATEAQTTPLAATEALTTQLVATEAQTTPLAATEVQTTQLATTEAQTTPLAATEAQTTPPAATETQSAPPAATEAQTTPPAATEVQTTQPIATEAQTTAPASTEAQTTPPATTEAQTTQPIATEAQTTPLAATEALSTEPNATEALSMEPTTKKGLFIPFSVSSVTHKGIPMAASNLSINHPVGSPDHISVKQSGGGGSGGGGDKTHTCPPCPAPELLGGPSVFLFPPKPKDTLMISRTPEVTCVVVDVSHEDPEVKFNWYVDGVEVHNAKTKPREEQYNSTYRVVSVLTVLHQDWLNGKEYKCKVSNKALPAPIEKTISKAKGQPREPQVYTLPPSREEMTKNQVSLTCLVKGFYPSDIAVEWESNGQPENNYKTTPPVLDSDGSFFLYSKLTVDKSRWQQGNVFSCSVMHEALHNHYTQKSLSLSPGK
TEST SUMMARY: ELISA, 20 nM mAb on plate cyno PSGL-1(ECD)-Fc
METRIC: A450nm (A450 nm)
All answers are understood in A450 nm, so give the number only.

09A08 (antibody, IgG4, V domains shown) VH: QVQLVQSGAAVKKPGESLKISCKGSGYTFSNYWIGWVRQMPGKGLEWMGIIYPGDSDTRYSPSFQGQVTISADKSISTAYLQWSSLKASDTAMYYCARHIVGPPKSAFDIWGQGTMVTVSS VL: DIVMTQTPLSLPVTLGQPASISCSSSQGLQKRDGNTYLNWFQQRPGQSPRRLIYKVSNRDSGVPDRFSGSGSGTDFTLKISRVEAEDVGVYYCMQGTHWPWTFGQGTRVEIK | 1.18
03E05 (antibody, IgG4, V domains shown) VH: EVKLLESGGDLAQTGGSLRLSCVASGFTFSSYPMSWVRQAPGKGLEWVSAIRRSGATQYADSVKGRFTISRDNSKNTVYLQMNSLRVEDTAVYYCAKGTYDLGQGTLVTVSS VL: DIVMTQTPLSLPVTLGQPASISCRSSQSLVYSDGNTYLNWFHQRPGQSPRRLIYKVSNRDSGVPDRFSGSGSDTEFTLKISRVEAEDVGVYYCMQATHWPLTFGGGTKVEIK | 0.39
10B03 (antibody, IgG4, V domains shown) VH: EVKLLESGGDLVQPGGSLRLSCAASGLTFSNYAMSWVRQAPGKGLEWVSAISGSGDNTYYADSVKGRFTISRDNSKNTLYLQMNSLRADDTAVYFCAKRDSWGQGTLVTVSS VL: QAVLTQPPSASGTPGQRVTISCSGSTSNIGSRDVYWYQHLPGTAPKLVIYRNDQRPSGVPDRFSGSKSGTSASLAISGLRSEDDADYYCAVWDNSLRGRVFGGGTKLTVL | 0.68
18F02 (antibody, V domains shown, From mouse immunisation; only variable domains given) VH: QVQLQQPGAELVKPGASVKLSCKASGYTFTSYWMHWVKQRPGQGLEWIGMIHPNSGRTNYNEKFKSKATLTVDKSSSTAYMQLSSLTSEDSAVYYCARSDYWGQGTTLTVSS VL: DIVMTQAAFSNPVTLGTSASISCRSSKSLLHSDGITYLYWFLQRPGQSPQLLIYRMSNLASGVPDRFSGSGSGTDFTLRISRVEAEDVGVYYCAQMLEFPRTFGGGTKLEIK | 2

## Input What value of A450nm has been recorded for this entry: 09C10 (antibody, V domains shown) VH: EVKLLESGGGLIQPGGSLRLSCAASGFTVSNNYVTWVRQAPGKGLELVSSIYSGGGTYYADSVKGRFTISRDNSKNTVYLQMNSLRADDTAVYYCARNVPVTNFGYWGQGTLVTVSS VL: DIVMTQSPLSLPVTLGQPASISCRSSQSLVYRDGNTYLNWFQQRPGQSPRRLIYKVSNRDSGVPDRFSGSGSGTDFTLKISRVEAEDVGVYYCMQLTHWPPGFAQGTKLEIK
## Output 1.17

Hello, the source for this data is patent US20220396632A1, in case you need it.
